Each recorded value in this set is attributed to ChEMBL document CHEMBL1123691.

Target: UniProt:P15101
Assay: Inhibitor dissociation constant vs. tyramine substrate against Dopamine beta hydroxylase at pH 6.0
Metric name: Kis (µM)
Give a bare numeral; the unit µM is implied.

Request: Recall and state the measured Kis for `FC(F)(F)c1ccc(Cn2cc[nH]c2=S)cc1` .
Response: 9.04

Request: Recall and state the measured Kis for `Cc1ccc(Cn2cc[nH]c2=S)cc1` .
Response: 9.77

***
Request: Recall and state the measured Kis for `S=c1[nH]ccn1Cc1ccccc1` .
Response: 0.83

Request: Recall and state the measured Kis for `S=c1[nH]ccn1Cc1ccc(Br)cc1` .
Response: 3.42

---

Test: Partition coefficient (logP)
Format: physicochemical
Conditions: octanol/water
# Lookup of reported logP keyed by entry
Answer with a bare number; do not write a unit.

Worked set:
Request: Recall and state the measured logP for `S=c1[nH]ccn1Cc1cc(Cl)cc(Cl)c1` .
Response: 1.78

Request: Recall and state the measured logP for `Oc1c(F)cc(Cn2cc[nH]c2=S)cc1F` .
Response: 1.08

Request: Recall and state the measured logP for `Oc1ccc(Cn2cc[nH]c2=S)cc1` .
Response: 1.02

Request: Recall and state the measured logP for `Oc1ccc(Cn2cc[nH]c2=S)cc1F` .
Response: 1.12

Request: Recall and state the measured logP for `Fc1cccc(Cn2cc[nH]c2=S)c1` .
Response: 1.7

Consider the additional compound presented here.
Request: Recall and state the measured logP for `Fc1cc(F)cc(Cn2cc[nH]c2=S)c1` .
Response: 1.98

---

Target: Dopamine beta-hydroxylase (Bos taurus, UniProt P15101)
Experiment: Inhibitory Concentration against bovine Dopamine beta hydroxylase (DBH); Range is between (1.7-2.4)
Metric name: IC50 (µM)
Give a bare numeral; the unit µM is implied.

Request: Recall and state the measured IC50 for `Oc1ccc(Cn2cc[nH]c2=S)cc1Cl` .
Response: 2

---

Target: Dopamine beta-hydroxylase (Bos taurus)
Sequence (P15101 whole entry): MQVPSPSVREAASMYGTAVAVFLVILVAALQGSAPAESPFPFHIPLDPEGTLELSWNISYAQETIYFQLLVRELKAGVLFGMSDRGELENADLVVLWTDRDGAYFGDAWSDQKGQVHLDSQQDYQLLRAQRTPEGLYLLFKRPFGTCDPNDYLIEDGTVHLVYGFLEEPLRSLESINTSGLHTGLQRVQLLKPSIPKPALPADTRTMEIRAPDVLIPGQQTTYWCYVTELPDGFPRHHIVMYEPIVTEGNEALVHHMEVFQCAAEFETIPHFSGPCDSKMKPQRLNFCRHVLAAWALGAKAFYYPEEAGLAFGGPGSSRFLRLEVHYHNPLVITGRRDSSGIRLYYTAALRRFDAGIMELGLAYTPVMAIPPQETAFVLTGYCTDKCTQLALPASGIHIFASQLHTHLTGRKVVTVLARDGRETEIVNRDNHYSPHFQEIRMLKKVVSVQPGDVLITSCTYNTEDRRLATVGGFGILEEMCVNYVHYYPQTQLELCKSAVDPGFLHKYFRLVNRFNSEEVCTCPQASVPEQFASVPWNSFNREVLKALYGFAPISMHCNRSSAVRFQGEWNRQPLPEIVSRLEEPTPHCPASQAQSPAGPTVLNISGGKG
Assay: Inhibitory Concentration against bovine Dopamine beta hydroxylase (DBH); Range is between (7-38).
Metric name: IC50
Your reply should be a number followed by the unit it is expressed in.

Request: Recall and state the measured IC50 for `S=c1[nH]ccn1Cc1ccc(Cl)cc1Cl` .
Response: 17 µM

---

Target: Dopamine beta-hydroxylase (Bos taurus)
Metric name: IC50 (nM)
Give a bare numeral; the unit nM is implied.

Request: Report value only: IC50, Dopamine beta-hydroxylase (Bos taurus), `S=c1[nH]ccn1Cc1cc(Cl)cc(Cl)c1`
Response: 2400

---

Biological target: UniProtKB P15101
Metric name: IC50
Your reply should be a number followed by the unit it is expressed in.

Request: Recall and state the measured IC50 for `COc1c(Cl)cc(Cn2cc[nH]c2=S)cc1Cl` .
Response: 47 µM

---

Biological target: UniProtKB P15101
Metric name: pIC50
# pIC50 = -log10(concentration in molar units)

Request: Report value only: pIC50, UniProtKB P15101, `Fc1ccc(Cn2cc[nH]c2=S)cc1`
Response: 4.33

---

Biological target: Dopamine beta-hydroxylase (Bos taurus)
Metric name: IC50 (µM)
Give a bare numeral; the unit µM is implied.

Request: Recall and state the measured IC50 for `Oc1ccc(Cn2cc[nH]c2=S)cc1Br` .
Response: 12

---

Target: UniProtKB P15101
Experiment: Inhibitory Concentration against bovine Dopamine beta hydroxylase (DBH); Range is between (56-72).
Metric name: pIC50
# pIC50 = -log10(concentration in molar units)

Request: Report value only: pIC50, UniProtKB P15101, `Oc1c(F)c(F)c(Cn2cc[nH]c2=S)c(F)c1F`
Response: 4.21

---

Target: Dopamine beta-hydroxylase (Bos taurus, UniProt P15101)
Metric name: IC50
Your reply should be a number followed by the unit it is expressed in.

Request: Report value only: IC50, Dopamine beta-hydroxylase (Bos taurus, UniProt P15101), `S=c1[nH]ccn1Cc1cccc(Cl)c1Cl`
Response: 52 µM

---

Biological target: Dopamine beta-hydroxylase (Bos taurus)
Metric name: pIC50
# pIC50 = -log10(concentration in molar units)

Request: Report value only: pIC50, Dopamine beta-hydroxylase (Bos taurus), `Oc1cccc(Cn2cc[nH]c2=S)c1`
Response: 3.83

---

Biological target: Dopamine beta-hydroxylase (Bos taurus, UniProt P15101)
Assay: Inhibitory Concentration against bovine Dopamine beta hydroxylase (DBH); Range is between (36-102)
Metric name: IC50 (µM)
Give a bare numeral; the unit µM is implied.

Request: Report value only: IC50, Dopamine beta-hydroxylase (Bos taurus, UniProt P15101), `Oc1cc(Cl)c(Cn2cc[nH]c2=S)c(Cl)c1`
Response: 75

---

Molecular target: UniProtKB P15101
Test: Percent inhibition against bovine Dopamine beta hydroxylase (DBH) at 10E-4 M
Metric name: inhibition
Your reply should be a number followed by the unit it is expressed in.

Worked set:
Request: Recall and state the measured inhibition for `O=C(O)c1ccc(Cn2ccnc2S)cc1` .
Response: 1%

Request: Recall and state the measured inhibition for `OCc1ccc(Cn2ccnc2S)cc1` .
Response: 6%

Request: Recall and state the measured inhibition for `COc1ccc(Cn2cc[nH]c2=S)cc1F` .
Response: 67%

Request: Recall and state the measured inhibition for `COc1ccc(Cn2cc[nH]c2=S)cc1OC` .
Response: 15%

Request: Recall and state the measured inhibition for `Cc1ccc(Cn2cc[nH]c2=S)cc1` .
Response: 34%

***
Request: Recall and state the measured inhibition for `COc1ccc(Cn2cc[nH]c2=S)cc1C` .
Response: 72%

Request: Recall and state the measured inhibition for `COc1ccc(Cn2cc[nH]c2=S)cc1Br` .
Response: 60%

---

Target: Dopamine beta-hydroxylase (Bos taurus, UniProt P15101)
Metric name: IC50 (µM)
Give a bare numeral; the unit µM is implied.

Request: Report value only: IC50, Dopamine beta-hydroxylase (Bos taurus, UniProt P15101), `Oc1ccc(Cn2cc[nH]c2=S)cc1C(F)(F)F`
Response: 121

---

Molecular target: Dopamine beta-hydroxylase (Bos taurus, UniProt P15101)
Test: Inhibitory Concentration against bovine Dopamine beta hydroxylase (DBH); Range is between (10-14).
Metric name: pIC50
# pIC50 = -log10(concentration in molar units)

Request: Recall and state the measured pIC50 for `S=c1[nH]ccn1Cc1cccc(Cl)c1` .
Response: 4.92

---

Molecular target: Dopamine beta-hydroxylase (Bos taurus)
Test: Inhibitory Concentration against bovine Dopamine beta hydroxylase (DBH); Range is between (21-37).
Metric name: pIC50
# pIC50 = -log10(concentration in molar units)

Request: Recall and state the measured pIC50 for `S=c1[nH]ccn1Cc1ccc(Cl)c(Cl)c1` .
Response: 4.55

---

Molecular target: Dopamine beta-hydroxylase (Bos taurus, UniProt P15101)
Sequence (P15101 whole entry): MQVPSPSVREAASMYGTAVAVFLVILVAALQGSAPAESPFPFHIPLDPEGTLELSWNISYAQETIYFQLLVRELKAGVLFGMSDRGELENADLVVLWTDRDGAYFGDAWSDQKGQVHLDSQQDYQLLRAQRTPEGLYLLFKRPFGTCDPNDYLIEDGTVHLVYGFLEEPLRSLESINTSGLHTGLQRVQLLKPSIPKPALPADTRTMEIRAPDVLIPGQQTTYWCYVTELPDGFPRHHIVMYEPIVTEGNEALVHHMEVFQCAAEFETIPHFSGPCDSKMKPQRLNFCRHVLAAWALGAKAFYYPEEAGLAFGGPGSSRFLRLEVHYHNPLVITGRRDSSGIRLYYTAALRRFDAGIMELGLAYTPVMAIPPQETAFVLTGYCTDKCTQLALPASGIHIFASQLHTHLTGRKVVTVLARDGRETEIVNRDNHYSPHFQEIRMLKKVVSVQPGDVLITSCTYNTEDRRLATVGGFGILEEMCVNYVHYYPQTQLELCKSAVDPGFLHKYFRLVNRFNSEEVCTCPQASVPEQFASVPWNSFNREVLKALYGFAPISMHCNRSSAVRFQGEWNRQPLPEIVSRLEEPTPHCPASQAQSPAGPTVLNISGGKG
Metric name: pIC50
# pIC50 = -log10(concentration in molar units)

Request: Recall and state the measured pIC50 for `Cc1cc(Cn2cc[nH]c2=S)ccc1O` .
Response: 4.31
